Structures can show the parent of a compound that is named as a salt.
measure: melting point

Examples with their reported melting point follow.
- CCC1CNCCN1c1nccnc1OCCOc1cccnc1 (centres unmarked) (as salt: fumarate) [Example 178]: 125 to 127 °C
- Brc1cccc(OCCOc2nccnc2N2CCNCC2)c1 [Example 37]: 62 to 63 °C
- Cc1ccccc1OCCOc1nccnc1N1CCNCC1 (as salt: maleate) [Example 93]: 151 to 152 °C
- c1cc(OCCOc2nccnc2N2CCNCC2)c2ccncc2c1 (as salt: maleate) [Example 134]: 178 to 180.5 °C
- Clc1ccc(OCCOc2nccnc2N2CCNCC2)cn1 (as salt: maleate) [Example 203]: 145.9 to 146.3 °C

The compound c1ccc(OCCCOc2nccnc2N2CCNCC2)cc1 (as salt: hydrochloride) [Example 90] showed melting point equal to 146 to 146.5 °C

get_value(item= Nc1cc(OCCOc2nccnc2N2CCNCC2)c2ccccc2n1 (as salt: hydrochloride) [Example 160] , readout=melting point) returns 156 °C (dec.)

Lab note: measured melting point of c1cncc(OCCOc2nsnc2N2CCNCC2)c1 (as salt: maleate) [Example 209] was 116 to 118 °C
